Data provenance is ChEMBL document CHEMBL1136514.

Molecular target: Chymotrypsin-like elastase family member 2A (Sus scrofa, UniProt P08419)
Sequence (P08419 whole entry): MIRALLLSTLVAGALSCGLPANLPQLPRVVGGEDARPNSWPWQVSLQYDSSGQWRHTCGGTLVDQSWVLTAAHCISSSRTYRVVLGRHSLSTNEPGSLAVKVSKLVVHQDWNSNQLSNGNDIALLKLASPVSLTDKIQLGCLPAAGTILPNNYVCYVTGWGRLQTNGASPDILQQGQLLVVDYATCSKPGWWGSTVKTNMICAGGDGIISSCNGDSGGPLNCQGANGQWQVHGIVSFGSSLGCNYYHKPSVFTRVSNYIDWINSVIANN
Experiment: Inhibitory concentration against porcine pancreatic elastase (PPE); No inhibition
experimentalEndpoint: IC50

[[record]]
compound = "CCC(C)[C@@H]1NCCNC1=O (some centres not stated)"
experimentalendpoint = "IC50"
observedvalue = "Not Active"

[[record]]
compound = "CCC(C)[C@H]1C(=O)NCCN1C(=O)OC(C)(C)C (some centres not stated)"
experimentalendpoint = "IC50"
observedvalue = "Not Active"

[[record]]
compound = "CC(C)C[C@@H]1NCCN(Cc2ccccc2)C1=O"
experimentalendpoint = "IC50"
observedvalue = "Not Active"

[[record]]
compound = "CC(C)C[C@@H]1NCCNC1=O"
experimentalendpoint = "IC50"
observedvalue = "Not Active"

[[record]]
compound = "CC(C)C[C@H]1C(=O)NCCN1C(=O)OC(C)(C)C"
experimentalendpoint = "IC50"
observedvalue = "Not Active"

[[record]]
compound = "CCC(C)[C@@H]1NCCN(Cc2ccccc2)C1=O (some centres not stated)"
experimentalendpoint = "IC50"
observedvalue = "Not Active"

[[record]]
compound = "CCC(C)[C@H]1C(=O)N(S(=O)(=O)c2ccc(C)cc2)CCN1S(=O)(=O)c1ccc(C)cc1 (some centres not stated)"
experimentalendpoint = "IC50"
observedvalue = "Not Active"


====

Molecular target: Neutrophil elastase (Homo sapiens, UniProt P08246)
Sequence (P08246 whole entry): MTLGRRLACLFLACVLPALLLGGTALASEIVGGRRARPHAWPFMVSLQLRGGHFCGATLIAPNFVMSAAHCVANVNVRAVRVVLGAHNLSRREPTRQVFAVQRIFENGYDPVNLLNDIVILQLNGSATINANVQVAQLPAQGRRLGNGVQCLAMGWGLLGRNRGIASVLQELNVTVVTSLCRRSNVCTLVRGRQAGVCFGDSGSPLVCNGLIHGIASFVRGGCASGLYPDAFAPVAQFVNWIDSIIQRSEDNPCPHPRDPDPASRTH
Experiment: Inhibitory concentration against human neutrophil elastase (HNE)
experimentalEndpoint: IC50 (µM)

[[record]]
smilesrepresentation = "Cc1ccc(S(=O)(=O)N2CCN(Cc3ccccc3)C(=O)[C@@H]2CC(C)C)cc1"
target = "Neutrophil elastase (Homo sapiens, UniProt P08246)"
unitspec = "µM"
observedvalue = 28

